Target: T1, GLD-1-STAR (C. elegans, UniProt Q17339 135-336)
T1 sequence: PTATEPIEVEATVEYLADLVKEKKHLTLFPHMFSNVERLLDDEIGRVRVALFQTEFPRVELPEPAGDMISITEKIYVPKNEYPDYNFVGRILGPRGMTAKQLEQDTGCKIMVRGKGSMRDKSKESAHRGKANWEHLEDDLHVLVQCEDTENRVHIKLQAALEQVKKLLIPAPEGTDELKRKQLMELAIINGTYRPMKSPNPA
Assay: competition FP; probe TGE; 10 mM Tris pH 8.0, 25 mM NaCl, 0.1 mM EDTA, 0.1 mg/mL tRNA, 5 ug/mL heparin, 0.01% IGEPAL CA630, room temperature, 3 h; EMSA gel 6% native, 0.5x TBE, 4 C
Conditions: protein: recombinant; tags: MBP fusion; chain copies: 2
# reported pKi; entries follow
Units for pKi: none; it is -log10 of a concentration expressed in mol/L.

AUCUACUCAUAUCUACUCAUAU (ssRNA) [TGE 14-35] ... 8.34

### Prompt Could you please provide reported pKi for AUCUACUCAUAUCUAAUCGUCC (ssRNA) [TGE 46-67] ? Thanks!
### Response 7.97
